The entries below come with measured pKi values attached.
Biological target: γ-Glutamylcysteine Synthetase (Rattus norvegicus)
Sequence (P19468 1-637): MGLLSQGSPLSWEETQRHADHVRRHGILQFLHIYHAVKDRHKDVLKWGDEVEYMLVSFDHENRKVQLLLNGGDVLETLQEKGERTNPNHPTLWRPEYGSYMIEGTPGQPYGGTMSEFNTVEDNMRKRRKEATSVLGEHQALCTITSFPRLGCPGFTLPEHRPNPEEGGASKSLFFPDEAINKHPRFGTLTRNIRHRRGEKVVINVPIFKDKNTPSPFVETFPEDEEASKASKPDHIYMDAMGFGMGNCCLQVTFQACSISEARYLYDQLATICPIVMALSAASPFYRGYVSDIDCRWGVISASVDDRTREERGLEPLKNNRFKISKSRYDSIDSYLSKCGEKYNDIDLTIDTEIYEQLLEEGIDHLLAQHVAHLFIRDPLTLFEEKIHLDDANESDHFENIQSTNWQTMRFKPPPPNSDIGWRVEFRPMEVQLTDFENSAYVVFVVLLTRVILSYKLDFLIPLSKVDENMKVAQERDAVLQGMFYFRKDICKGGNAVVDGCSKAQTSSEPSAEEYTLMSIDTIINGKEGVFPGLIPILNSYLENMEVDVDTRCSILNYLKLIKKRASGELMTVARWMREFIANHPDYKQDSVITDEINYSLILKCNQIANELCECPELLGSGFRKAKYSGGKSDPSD
Sequence (P48508 1-274 partner): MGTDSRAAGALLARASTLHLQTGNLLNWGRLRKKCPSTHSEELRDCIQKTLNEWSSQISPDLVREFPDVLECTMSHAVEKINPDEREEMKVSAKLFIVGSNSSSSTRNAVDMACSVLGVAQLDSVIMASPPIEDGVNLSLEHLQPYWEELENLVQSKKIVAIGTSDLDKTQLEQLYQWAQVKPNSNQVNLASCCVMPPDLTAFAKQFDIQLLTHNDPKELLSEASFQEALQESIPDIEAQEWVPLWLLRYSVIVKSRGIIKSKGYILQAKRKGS
Reminder that pKi is minus the log10 of a molar concentration.

The following compounds have reported results that may help.
N=S(=O)(CC[C@H](N)C(=O)O)CC1CCCCC1 (stereo partly drawn) [CHMSO]; 5.42
CC(C)CCS(=N)(=O)CC[C@H](N)C(=O)O (stereo partly drawn) [3m BSO]; 6.22

Query block: Please look up its pKi: CCCCS(=N)(=O)CCC(N)C(=O)O [BSO, L-S-butyl homocysteine-SR-sulfoximine]
Result block: 6.22
